Test system: A549-ACE2
Assay: drug-induced phospholipidosis relative to tamoxifen; higher = more phospholipidosis
Settings: 10 µM; 24 h
parameterMeasured: drug-induced phospholipidosis (%)
Give the number; % is assumed, so skip it.

{"columns": ["molecule", "drug-induced phospholipidosis [%]"],
 "data": [
  ["CCN(CC)CCOC(=O)C1(C2CCCCC2)CCCCC1", 6.77],
  ["Cc1ncc(NC(=O)c2ccc(CN3CCN(C)CC3)c(C(F)(F)F)c2)cc1Nc1nccc(-c2cccnc2)n1", 106],
  ["O=C(Nc1ccc(-c2ccncc2)cc1)N[C@H](CO)c1ccccc1", 1.91],
  ["CN(C)c1ccccc1CN1CCCN(Cc2ccccc2N(C)C)C1c1ccncc1", 94.9]
]}

Q: Report value only: drug-induced phospholipidosis, A549-ACE2, `Clc1ccc(N/N=C(\c2ccccc2)c2ccccn2)nc1`
Ans: 26.1

====

Reported drug-induced phospholipidosis values follow for various compounds
Test system: A549-ACE2
Experiment: drug-induced phospholipidosis relative to tamoxifen; higher = more phospholipidosis
Conditions: 6.66667 µM; 48 h
Give the number; % is assumed, so skip it.

Example results:
{"columns": ["compound", "outputUnit", "drug-induced phospholipidosis"],
 "data": [
  ["COc1cccc(CCc2ccccc2OCC[C@@H]2C[C@@H](O)CN2C)c1", "%", 81.8],
  ["COc1ccc2cc1Oc1ccc(cc1)C[C@H]1c3c(cc4c(c3Oc3cc5c(cc3OC)CCN(C)[C@@H]5C2)OCO4)CCN1C", "%", 29.3]
]}

Q: Check the records and state drug-induced phospholipidosis for CCOc1ccc(-c2nc(-c3cccc4c3CCC4NCCO)no2)cc1OCC (centres undefined)
Ans: 72.9

Q: Check the records and state drug-induced phospholipidosis for `Cc1ncc(NC(=O)c2ccc(CN3CCN(C)CC3)c(C(F)(F)F)c2)cc1Nc1nccc(-c2cccnc2)n1`
Ans: 74.1

====

Tested on: U2OS
Assay: cell viability relative to DMSO; higher = less toxic
Conditions: 72 h; 1000 nM
Reported cell viability values follow for various compounds
Give the number; % is assumed, so skip it.

{"columns": ["compound", "outputUnit", "reported"],
 "data": [
  ["Cc1cc(-c2ccc(CC(=O)Nc3ccc(-c4cccnc4)cc3)cc2)ccn1", "%", 92.9]
]}

Q: Check the records and state cell viability for CC(C)(C)c1ccc(C(O)CCCN2CCC(C(O)(c3ccccc3)c3ccccc3)CC2)cc1 (stereo not given)
Ans: 99.7

Q: Check the records and state cell viability for `CN1CC(=O)N=C1NC(=O)Nc1cccc(Cl)c1`
Ans: 102

Q: Check the records and state cell viability for `COC(=O)c1c(-c2cc(OC)c(OC)c(OC)c2)c2ccnc(OCc3ncccn3)c2c(=O)n1Cc1ccnc(C)c1`
Ans: 99.3

====

Reported drug sensitivity score values follow for various compounds
Tested on: U2OS
Test: drug sensitivity score (DSS) for viability; higher = more toxic; extreme values may be limits of the assay
Conditions: 72 h
Format: numeric value only, no unit, no commentary.

{"columns": ["compound", "parameterMeasured", "reported"],
 "data": [
  ["CCOc1ccccc1OC(c1ccccc1)C1CNCCO1 (centres undefined)", "drug sensitivity score", 0]
]}

Q: Check the records and state drug sensitivity score for `CCN1CCN(Cc2ccc(-c3cc4c(N[C@H](C)c5ccccc5)ncnc4[nH]3)cc2)CC1`
Ans: 5.1

Q: Check the records and state drug sensitivity score for `OCC(CO)N[C@H]1C[C@](O)(CO)[C@@H](O)[C@H](O)[C@H]1O`
Ans: 0

Q: Check the records and state drug sensitivity score for `Cc1c(CN(C)C(=O)/C=C/c2cnc3c(c2)CCC(=O)N3)oc2ccccc12`
Ans: 0

Q: Check the records and state drug sensitivity score for `CN(C)c1ccccc1CN1CCCN(Cc2ccccc2N(C)C)C1c1ccncc1`
Ans: 0

Q: Check the records and state drug sensitivity score for `O=C(NS(=O)(=O)c1ccc(Br)s1)c1ccc(Cl)cc1Cl`
Ans: 0

Q: Check the records and state drug sensitivity score for `N[C@@]1(C(=O)O)CC[C@H]2[C@H](C(=O)O)[C@H]21`
Ans: 0

Q: Check the records and state drug sensitivity score for `NC12CC3CC(CC(C3)C1)C2`
Ans: 0
